Biological target: HMG-CoA reductase
Experiment: In vitro determination of HMG-CoA reductase inhibitory activity
Details: purified rat liver microsomal HMG-CoA reductase, 37° C., 40 minutes, pH 7.2
MEASURED_ATTRIBUTE: IC50 (µM)

COMPOUND	SYSTEM_UNDER_TEST	MEASURED_ATTRIBUTE	UNIT	ENDPOINT_RESULT
CC(CCO)C(=O)O[C@H]1C[C@@H](C)C=C2C=C[C@H](C)[C@H](CC[C@@H](O)C[C@@H](O)CC(=O)O)[C@H]21 (stereo partly shown) [n=2, R=H, R1=H, R2=CH3, R3=H]	HMG-CoA reductase	IC50	µM	0.04
C[C@H]1C=C2C=C[C@H](C)[C@H](CC[C@@H](O)C[C@@H](O)CC(=O)O)[C@H]2[C@@H](OC(=O)C(C)(C)CO)C1 [n=1, R=H, R1=CH3, R2=CH3, R3=H]	HMG-CoA reductase	IC50	µM	0.02

P: CC1C=C2C=CC(C)C(CCC(O)CC(O)CC(=O)O)C2C(OC(=O)C(C)(C)CCO)C1 (stereo not shown) [n=2, R=H, R1=CH3, R2=CH3, R3=H]
Q: C[C@H]1C=C2C=C[C@H](C)[C@H](CC[C@@H](O)C[C@@H](O)CC(=O)O)[C@H]2[C@@H](OC(=O)C(C)(C)CCCO)C1 [n=3, R=H, R1=CH3, R2=CH3, R3=H]
Input: Lower value of IC50 belongs to which: P or Q ? Output the label that corresponds to your choice.
Output: P

====

Test system: HMG-CoA reductase
Test: In vitro determination of HMG-CoA reductase inhibitory activity
Format: biochemical, rat
Details: Relative to compactin arbitrarily assigned a value of 100
MEASURED_ATTRIBUTE: Relative Potency

# count of solved cases: 2
COMPOUND	SYSTEM_UNDER_TEST	Relative Potency
C[C@H]1C=C2C=C[C@H](C)[C@H](CC[C@@H](O)C[C@@H](O)CC(=O)O)[C@H]2[C@@H](OC(=O)C(C)(C)CO)C1	HMG-CoA reductase	80
C[C@H]1C=C2C=C[C@H](C)[C@H](CC[C@@H](O)C[C@@H](O)CC(=O)O)[C@H]2[C@@H](OC(=O)C(C)(C)CCCO)C1	HMG-CoA reductase	63

P: CC1C=C2C=CC(C)C(CCC(O)CC(O)CC(=O)O)C2C(OC(=O)C(C)(C)CCO)C1 (stereo not shown)
Q: CC(CCO)C(=O)O[C@H]1C[C@@H](C)C=C2C=C[C@H](C)[C@H](CC[C@@H](O)C[C@@H](O)CC(=O)O)[C@H]21 (stereo partly shown)
Input: Identify the entry with the larger Relative Potency. Options: P and Q // return label of chosen record
Output: P
